- study_target: HLA-B*5401 (human)
- assay_remarks: competition vs 125I probe peptide, purified HLA, gel filtration
- protocol_conditions: remark: other sources report otherwise
Consider the following binders; for each one, report its pIC50.
One number for each entry, as −log10 of the molar value.

FPDHQLDPA (modifications not checked) [Peptide 16.0006 (HBV ENV 25, …)] ... 7.92

Answer for every listed entry: what is its pIC50? The entries follow.
1. VPSALNPA (modifications not checked) [Peptide 19.0016 (HBV POL 769, VPSALNPA)]
2. LPIHTAELLA (modifications not checked) [Peptide 16.0181 (HBV POL 723, …)]

1. 8.00
2. 7.52
